Source listed as the supplement of paper PMC7411054.

Test system: A549-CANX-COX4
ASSAY_NOTES: phenotypically active (imaging signature differs from DMSO and reproducible) at any of 0.3-9 uM (binary (1 = active, 0 = inactive)); higher = active
MEASUREMENT_CONDITIONS: treatment time: 24 h
Entries and their phenotypically active
Please respond with just the number, no unit label.

Here's what some known entries look like.
>>> recorded_value("CC(C)N(CCC(C(N)=O)(c1ccccc1)c1ccccn1)C(C)C (configuration not stated) [disopyramide]")
0
>>> recorded_value("CCN1C[C@@]2(COC)C3[C@@H](OC)[C@H]4[C@H]1C3([C@@H]1C[C@@]3(O)[C@H](OC(=O)c5ccccc5)[C@@H]1[C@]4(OC(C)=O)[C@@H](O)[C@@H]3OC)[C@H](OC)C[C@H]2O")
0
>>> recorded_value("CCCCCC[C@H]1C(=O)O[C@H](C)[C@H](NC(=O)c2cccc(NC=O)c2O)C(=O)O[C@@H](C)[C@@H]1OC(=O)CC(C)C [antimycin a]")
1
>>> recorded_value("NC(=S)N/N=C/c1coc2ccccc2c1=O")
0
>>> recorded_value("C[C@@H]1CC[C@H]2[C@@H](C)C(=O)O[C@@H]3O[C@@]4(C)CC[C@@H]1[C@]32OO4")
0
>>> recorded_value("Oc1ccc2c3c1O[C@H]1[C@@H](O)CC[C@@]4(O)[C@@H](C2)N(CC2CCC2)CC[C@]314")
0

// next item, phenotypically active requested
[ask] # lookup: phenotypically active of COc1ccc2c(c1OC)C(=O)O[C@@H]2[C@H]1c2cc3c(cc2CCN1C)OCO3 [Hydrastine]
[reply] 0
